Value source: PubChem BioAssay (NCI)

System: MOLT-4 leukemia
Assay: NCI tumour cell line growth inhibition, 48 h
parameter_measured: TGI

Past entries and their recorded results:
N#CC(N=Nc1ccc(Cl)cc1)c1nc2ccccc2o1 (stereo unspecified)
> 100 µM
CCOC(=O)C(Cl)(Cl)/S(=N\S(=O)(=O)c1ccccc1)NC(=O)c1ccccc1 (stereo unspecified)
> 100 µM
Nc1cc(Br)c(-c2nnc(CCC(=O)c3nc4ccccc4[nH]3)o2)c(Br)c1
> 100 µM
Cc1cn([C@@H]2C[C@H](CO)[C@@H](O)C2)c(=O)[nH]c1=O
> 100 µM
O=C(O)C(SC1=NNC2(C(=O)N1)c1ccccc1-c1ccccc12)SC1=NNC2(C(=O)N1)c1ccccc1-c1ccccc12
> 10 µM

// switching to the query compound
API: value(readout=TGI, system=MOLT-4 leukemia) for record N/C(=N\S(=O)(=O)c1c(C(F)(F)F)cccc1C(F)(F)F)Nc1ccc(Cl)cc1
> 100 µM

###

Tested on: UO-31 renal
Experiment: NCI tumour cell line growth inhibition, 48 h
The entries below come with measured TGI values attached.

Past entries and their recorded results:
CCOP(=O)(OCC)C(C(=O)OC)C(=O)C(=O)Nc1ccc(Cl)cc1Cl (stereo not drawn)
> 100 µM
Cc1cc2c(c(C(N)=O)c1C)-c1ccccc1C2=O
> 100 µM

// switching to the query molecule
API: value(readout=TGI, system=UO-31 renal) for record Cc1ccc(OCCn2cc(Nc3ccccc3)c(=O)n(CCOc3ccc(C)cc3)c2=O)cc1
> 100 µM

###

Test system: RPMI-8226 leukemia
Assay: NCI tumour cell line growth inhibition, 48 h
The entries below come with measured TGI values attached.

Past entries and their recorded results:
CCOC(CNCCC(=O)OC)OCC
> 10 µM
CCc1ccc2c(c1)C(=O)c1c-2n(CCCN=[N+]=[N-])c(=O)c2cc([N+](=O)[O-])ccc12
> 50 µM

TGI lookup needed for CN(C)CCNCCN , thanks.
> 100 µM

###

Tested on: K-562 leukemia
Experiment: NCI tumour cell line growth inhibition, 48 h
parameter_measured: TGI (µM)
Answer with a number only, understood to be in µM.

Past entries and their recorded results:
Cc1ccccc1C1=[N+]([O-])c2ccc(Cl)cc2C1=O
24.1
CCC1CN2CCc3cc(OC)c(OC)cc3C2CC1CC1c2cc(OC)c(OC)cc2CCN1C(=O)C1CCCN1 (stereo not given)
51.4
CC(C)=C1CCC(CN(C)C)C1=O (stereo not given)
31
N#CC(N=Nc1ccc(Cl)cc1)c1nc2ccccc2o1 (stereo not given)
50.2
CC12CCC3C(CCC4CC(OC(=O)Cc5ccc(N(CCCl)CCCl)cc5)CCC43C)C1CCC(=O)N2 (stereo not given)
35.3
CCCCNC(=S)N/N=C/c1cccc(C)n1
44.5

TGI lookup needed for NNC1=N/C(=C\c2ccco2)C(Cl)=N1 , thanks.
42

TGI lookup needed for Clc1ccc(CSCCc2ccncc2)cc1Cl , thanks.
51

###

Test system: HOP-92 NSCLC
Experiment: NCI tumour cell line growth inhibition, 48 h; in the data active = GI50 below about 0.43 µM; inactive = the rest
Pick one and only one: YES = active, NO = inactive

Nc1ccccc1O.O.O=C(O)C1[O][Sb][O]C1C(=O)O (centres undefined)
NO

Outcome? O=C(O)c1cccc(COc2ccc([N+](=O)[O-])cc2Cl)c1
NO

Outcome? CCCC/C(=C\C1=C(C)C(=O)C(OC)=C(OC)C1=O)C(=O)O
NO

Outcome? COc1cc2c(cc1O)CCN[C@]21CS[C@@H]2c3c(OC(C)=O)c(C)c4c(c3[C@H](COC1=O)N1[C@@H]2[C@H]2c3c(cc(C)c(OC)c3O)C[C@@H]([C@@H]1O)N2C)OCO4
YES

###

The entries below come with measured TGI values attached.
Test system: TK-10 renal
Assay: NCI tumour cell line growth inhibition, 48 h

C=Cc1ccc(C)[n+](C[Si](C)(C)O[Si](C)(C)C[n+]2cc(C=C)ccc2C)c1
> 100 µM
COc1cc2nc(-c3cccs3)oc(=O)c2cc1OC
> 100 µM
O=C1CCCN1c1ccccc1I(=O)=O
> 100 µM
COc1ccc(-c2nccn2-c2ccc(OC)cc2)cc1
> 75.9 µM
CCC/C=C/C=C/C1CC(O)C(O)C(=O)C1CO (stereo unspecified)
> 100 µM

TGI lookup needed for NC(CC1=CS(=O)(=O)c2ccc(Cl)cc21)C(=O)O (stereo unspecified) , thanks.
> 100 µM

###

System: MCF7 breast
Test: NCI tumour cell line growth inhibition, 48 h
Where a SMILES comes first, the peptide text is derived from it. Bridges are numbered along the chain shown (N, C = ends). [ ]: non-standard residue; d: D form. The star is where a group is joined. ξ: configuration not given here. X26 = O=C(/C=C/C=C/C=C/C=C/C=C/C(=O)*)NC1=C(O)CCC1=O; NMeA = CN[C@@H](C)C(=O)O; ξF = NC(Cc1ccccc1)C(=O)O; ξA = CC(N)C(=O)O
parameter_measured: TGI

Past entries and their recorded results:
CC1NC(=O)[C@H](C)N(C)C(=O)[C@@H]2CCCN2C(=O)[C@@H](NC(=O)C(Cc2ccccc2)NC(=O)/C=C/C=C/C=C/C=C/C=C/C(=O)NC2=C(O)CCC2=O)COC(=O)[C@@H]2CCCN2C1=O (stereo not given in full) (X26-[ξF]SP[NMeA][ξA]P; ester 2-C)
> 100 µM
CC1=C2C(=C[C@H]3[C@]4(C)CCCC(C)(C)[C@H]4CC[C@]34O[C@H]24)OC1=O
> 100 µM
COc1cc2c(Nc3cc(Cl)c(OC)c(Cl)c3)c(C#N)cnc2cc1OCCCN1CCN(C)CC1
12.6 µM
COc1ccc(/C(C)=C(\c2ccc(OCCN3CCCCCC3)cc2)c2ccc(OC(=O)C3CCCCC3)cc2)cc1
2.88 µM

TGI lookup needed for O=C(Nc1ccccc1F)c1cc2ccc(O)cc2oc1=Nc1ccccc1F , thanks.
11.3 µM

TGI lookup needed for CCN(CC)CCCCCCNc1cccc2cc(Br)cnc12 , thanks.
11.2 µM

TGI lookup needed for COc1ccc(-c2nc(-c3cc(OC)cc(OC)c3)[nH]c2-c2ccc(OC)cc2)cc1 , thanks.
> 100 µM

TGI lookup needed for NCCCN1CCN(CCCNc2ccc3nnn4c5ccccc5c(=O)c2c34)CC1 , thanks.
74.7 µM

TGI lookup needed for Cc1c(N2C(=O)C(Cl)C2c2ccc(Cl)cc2)c(=O)n(-c2ccccc2)n1C (stereo not given) , thanks.
> 100 µM

TGI lookup needed for Nc1ccc(-c2nc3ccccc3s2)cc1C(F)(F)F , thanks.
19.4 µM

###

Tested on: MOLT-4 leukemia
Experiment: NCI tumour cell line growth inhibition, 48 h; in the data active means GI50 below about 0.43 µM; inactive means the rest
Pick one and only one: active, inactive

Take a look at these entries with their results.
Cc1ccc(OCCOCCOCCOCCOc2ccc(C)n(O)c2=S)c(=S)n1O
active
COc1cc2c(Nc3cc(Cl)c(OC)c(Cl)c3)c(C#N)cnc2cc1OCCCN1CCN(C)CC1
inactive
Nc1cc2c(cc1Br)[nH]c(=O)c1ccccc12
inactive
COc1ccc(-c2cnnn2-c2nonc2-n2cccc2)cc1
inactive
O=C1c2ccccc2-c2c1c1ccccc1c(=O)n2CCN1CCNCC1
active
O=C(Nc1cc(Cl)ccc1O)c1ccc(Nc2ccnc(C(F)(F)F)c2)cc1
inactive
CCCC/C(=C\C1=C(C)C(=O)C(OC)=C(OC)C1=O)C(=O)O
inactive
OC(c1cc(-c2ccc(C(F)(F)F)cc2)nc(C(F)(F)F)c1)C1CCCCN1 (configuration not stated)
inactive

Outcome? NNCCc1ccc(NC(=O)CCCc2ccc(C(=O)Nc3ccccc3N)cc2)cc1
inactive

###

The entries below come with measured GI50 values attached.
System: SNB-75 CNS
Experiment: NCI tumour cell line growth inhibition, 48 h

Past entries and their recorded results:
NNCCc1ccc(NC(=O)CCCc2ccc(C(=O)Nc3ccccc3N)cc2)cc1
32800 nM
O=C(NCc1ccc(Cn2c(=O)sn(-c3ccccc3)c2=O)cc1)OCc1ccc2cccc(O)c2n1
783 nM
Nc1cc(Br)c(-c2nnc(CCC(=O)c3nc4ccccc4[nH]3)o2)c(Br)c1
2960 nM

// switching to the query compound
GI50 lookup needed for N=C(N)c1ccc(-c2ccc(-c3cccs3)s2)cc1 , thanks.
1690 nM

###

# collection of GI50 values tested on NCI-H460 lung

Past entries and their recorded results:
Nc1cc2c(cc1Br)[nH]c(=O)c1ccccc12
3660 nM
Cc1cc(N/N=C/c2ccccn2)nc2ccccc12
349 nM

GI50 lookup needed for COc1cccc(/C=N/[N-]C(=O)c2ccncc2)c1[O-].COc1cccc(/C=N/[N-]C(=O)c2ccncc2)c1[O-].[O]=[U](=[O])([OH2+])[OH2+] , thanks.
3460 nM

GI50 lookup needed for O=C(c1ccco1)c1c(C(F)(F)F)n([O-])c2ccc(C(F)(F)F)cc2[n+]1=O , thanks.
434 nM

GI50 lookup needed for CCCC/C(=C\C1=C(C)C(=O)C(OC)=C(OC)C1=O)C(=O)O , thanks.
> 100000 nM

GI50 lookup needed for CCc1ccc2c(c1)C(=O)c1c-2n(CCCN=[N+]=[N-])c(=O)c2cc([N+](=O)[O-])ccc12 , thanks.
> 50000 nM

GI50 lookup needed for O=C(Nc1cc(Nc2ncccc2-c2ncnc3nc[nH]c23)ccc1F)c1cc(C(F)(F)F)cc(C(F)(F)F)c1 , thanks.
1980 nM
